Reference source for all entries: ChEMBL document CHEMBL3045502

Recorded MIC for the following compounds
- Test system: Bacillus subtilis
- measurement-protocol: Antimicrobial activity against Bacillus subtilis MTCC 441 after 24 to 48 hr by broth microdilution method
- Assay type: functional
Number only, in µg/mL; omit the unit.

// worked examples, MIC included
| compound | tgt | MIC, µg/mL |
| --- | --- | --- |
| CCn1cc(C(=O)O)c(=O)c2cc(F)c(N3CCNCC3)cc21 [NORFLOXACIN] | Bacillus subtilis | 100 |
| COc1ccc2c(c1)cc(-c1nc3ccccc3[nH]1)c1nnnn12 | Bacillus subtilis | 250 |
| Clc1ccc2c(c1)cc(-c1nc3ccccc3[nH]1)c1nnnn12 | Bacillus subtilis | 250 |
| Clc1ccc2[nH]c(-c3cc4ccccc4n4nnnc34)nc2c1 | Bacillus subtilis | 500 |

// query Fill blank: measured MIC of the compound Cc1ccc2c(c1)cc(-c1nc3cc(C)ccc3[nH]1)c1nnnn12 is ____.
// result 500

// query Lookup Brc1ccc2[nH]c(-c3cc4ccccc4n4nnnc34)nc2c1
// result 500

// query Lookup Cc1ccc2c(c1)cc(-c1nc3cc(Cl)ccc3[nH]1)c1nnnn12
// result 500
